- System: Acinetobacter baumannii ATCC-BAA-1792
- method description: MIC on Acinetobacter baumannii strains
- Assay type: cell-based
- run parameters: ATCCBAA1792, ATCC-BAA-1792, read-out: MIC
- Source text: Twelve strains of Acinetobacter baumannii, A. baumannii ATCC 17978 (ATCC-BAA-1605, ATCC-BAA-1789, ATCC-BAA-1790, ATCC-BAA-1791, ATCC-BAA-1792, ATCC-BAA-1793, ATCC-BAA-1794, ATCC-BAA-1795, ATCC-BAA-1799, ATCC-BAA-1800, ATCC 19606, ATCC 17978) were used to determine the minimum inhibitory concentration (MIC) of the compounds by micro-liquid dilution method according to the Institute of Clinical and Laboratory Standard (CLSI) requirements.
quantity measured: MIC (µg/mL)
Enter your answer as a number in µg/mL; do not include the unit.

In: Given the entry C[C@H]1[C@H](NC(=O)/C(=N\OC(C)(C)C(=O)O)c2csc(N)n2)C(=O)N1S(=O)(=O)O [Aztreonam, reference compound] , report its measured MIC.
Out: 64

In: What do you get for C[C@@H](O)[C@H]1C(=O)N2C(C(=O)O)=C(SCCN=CN)C[C@H]12 [Imipenem, reference compound] ?
Out: 64

In: What do you get for CC1(C)[C@H](NC(=O)/C(=N\OCCOc2ccc3c(c2)CC[N+](C)(CCCN)C3)c2csc(N)n2)C(=O)N1OS(=O)(=O)[O-] (stereo partly shown) ?
Out: 16

In: What do you get for `CC1(C)[C@H](NC(=O)/C(=N\OCCOc2ccc3c(c2)CCN(C(=N)N)C3)c2csc(N)n2)C(=O)N1OS(=O)(=O)O` ?
Out: 16

In: What do you get for `CC1(C)[C@H](NC(=O)/C(=N\OCCOc2ccc3c(c2)CCN(CCCN)C3)c2csc(N)n2)C(=O)N1OS(=O)(=O)O` ?
Out: 8

In: What do you get for `CC1(C)[C@H](NC(=O)/C(=N\OCCOc2ccc3c(c2)CCN(C(=N)NCCCN)C3)c2csc(N)n2)C(=O)N1OS(=O)(=O)O` ?
Out: 4

In: What do you get for `CC1(C)[C@H](NC(=O)/C(=N\OCCOc2ccc3c(c2)CCN(CCCNC(=N)N)C3)c2csc(N)n2)C(=O)N1OS(=O)(=O)O` ?
Out: 8
